Tested on: SCC90 (Head and Neck Carcinoma)
Experiment: combination Emax (second highest fraction inhibited in the dose matrix, 72 h); higher = more inhibition; extreme values may be limits of the assay
measured.metric: combination Emax
Output spec: single numeric token, no unit.

Below: 2 compounds and their reported combination Emax.
Cn1cnc2c(F)c(Nc3ccc(Br)cc3Cl)c(C(=O)NOCCO)cc21 [Selumetinib] + CCN(CCO)CCCOc1ccc2c(Nc3cc(CC(=O)Nc4cccc(F)c4)[nH]n3)ncnc2c1 [AZD2811] (first compound max 10 µM, 7x7, partner max 1 µM)
0.827
COc1cccc(OCCCN)c1-c1cc(Nc2cnc(C#N)cn2)n[nH]1 [Prexasertib] + CN(C)CCCOc1ccc(-c2ccc3ncc4c(c3c2)n(C2CCOCC2)c(=O)n4C)cn1 [AZD0156] (first compound max 1 µM, 7x7, partner max 1 µM)
0.737

Pending compound:
Challenge: What combination Emax value was documented for this compound, CCN(CCO)CCCOc1ccc2c(Nc3cc(CC(=O)Nc4cccc(F)c4)[nH]n3)ncnc2c1 [AZD2811] + C[C@@H]1COCCN1C2=NC(=NC(=C2)C3(CC3)[S@](=N)(=O)C)C4=C5C=CNC5=NC=C4 [AZD6738] (first compound max 1 µM, 7x7, partner max 10 µM) ?
Response given: 0.353

----------
System: OCI-M1 (Acute Myeloid Leukemia);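 note: after 72 h of two-drug dosing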
Assay: Bliss excess, mean over the matrix (fraction); higher = more synergy
measured.metric: Bliss excess
Just the number, please.

Here are 10 compounds together with their reported answers.
CC1(C)CCC(CN2CCN(c3ccc(C(=O)NS(=O)(=O)c4ccc(NCC5CCOCC5)c([N+](=O)[O-])c4)c(Oc4cnc5[nH]ccc5c4)c3)CC2)=C(c2ccc(Cl)cc2)C1 [Venetoclax] + COc1cc(Nc2ncc3c(n2)-c2ccc(Cl)cc2C(c2c(F)cccc2OC)=NC3)ccc1C(=O)O [Alisertib] (first compound max 1 µM, 7x7, partner max 10 µM)
0.0977
COc1cccc(OCCCN)c1-c1cc(Nc2cnc(C#N)cn2)n[nH]1 [Prexasertib] + C=CCn1c(=O)c2cnc(Nc3ccc(N4CCN(C)CC4)cc3)nc2n1-c1cccc(C(C)(C)O)n1 [AZD1775] (first compound max 1 µM, partner max 1 µM)
0.0152
CN(CCO)CC[C@H](CSc1ccccc1)Nc1ccc(S(=O)(=O)NC(=O)c2ccc(N3CCC([C@@H](O)c4ccccc4-c4ccc(Cl)cc4)CC3)cc2)cc1S(=O)(=O)C(F)(F)F [AZD4320] + C=CCn1c(=O)c2cnc(Nc3ccc(N4CCN(C)CC4)cc3)nc2n1-c1cccc(C(C)(C)O)n1 [AZD1775] (first compound max 1 µM, partner max 1 µM)
0.0479
CN(CCO)CC[C@H](CSc1ccccc1)Nc1ccc(S(=O)(=O)NC(=O)c2ccc(N3CCC([C@@H](O)c4ccccc4-c4ccc(Cl)cc4)CC3)cc2)cc1S(=O)(=O)C(F)(F)F [AZD4320] + CN(C)CCCOc1ccc(-c2ccc3ncc4c(c3c2)n(C2CCOCC2)c(=O)n4C)cn1 [AZD0156] (first compound max 1 µM, 7x7, partner max 1 µM)
-0.0094
COc1cccc(OCCCN)c1-c1cc(Nc2cnc(C#N)cn2)n[nH]1 [Prexasertib] + Cc1cc2ncnn2cc1Nc1ncc2c(n1)n(C1CCOCC1)c(=O)n2C [AZD7648] (first compound max 1 µM, 7x7, partner max 10 µM)
-0.0483
C[C@@H](c1ccc2nccn2c1)n1nnc2ncc(-c3cnn(C)c3)nc21 [Savolitinib] + CC1(C)CCC(CN2CCN(c3ccc(C(=O)NS(=O)(=O)c4ccc(NCC5CCOCC5)c([N+](=O)[O-])c4)c(Oc4cnc5[nH]ccc5c4)c3)CC2)=C(c2ccc(Cl)cc2)C1 [Venetoclax] (first compound max 1 µM, 7x7, partner max 1 µM)
-0.0215
CN(C)CCCOc1ccc(-c2ccc3ncc4c(c3c2)n(C2CCOCC2)c(=O)n4C)cn1 [AZD0156] + C=CCn1c(=O)c2cnc(Nc3ccc(N4CCN(C)CC4)cc3)nc2n1-c1cccc(C(C)(C)O)n1 [AZD1775] (first compound max 1 µM, partner max 1 µM)
0.0077
NC1(C(=O)N[C@@H](CCO)c2ccc(Cl)cc2)CCN(c2ncnc3[nH]ccc23)CC1 [Capivasertib] + CC(=O)c1c(C)c2cnc(Nc3ccc(N4CCNCC4)cn3)nc2n(C2CCCC2)c1=O [Palbociclib] (first compound max 10 µM, 7x7, partner max 10 µM)
-0.0056
C[C@@H](c1ccc2nccn2c1)n1nnc2ncc(-c3cnn(C)c3)nc21 [Savolitinib] + CN(CC[C@H](CSC1=CC=CC=C1)NC2=C(C=C(C=C2)S(=O)(=O)NC(=O)C3=CC=C(C=C3)N4CCC(CC4)[C@H](C5=CC=CC=C5C6=CC=C(C=C6)Cl)O)S(=O)(=O)C(F)(F)F)CCO [AZD4320] (first compound max 1 µM, 7x7, partner max 1 µM)
-0.0212
Cn1cnc2c(F)c(Nc3ccc(Br)cc3Cl)c(C(=O)NOCCO)cc21 [Selumetinib] + CCN(CCO)CCCOc1ccc2c(Nc3cc(CC(=O)Nc4cccc(F)c4)[nH]n3)ncnc2c1 [AZD2811] (first compound max 10 µM, 7x7, partner max 1 µM)
0.0927

Let's switch to this compound now.
Challenge: Name the reported Bliss excess value associated with the compound CS(=O)(=O)CCNCc1ccc(-c2ccc3ncnc(Nc4ccc(OCc5cccc(F)c5)c(Cl)c4)c3c2)o1 [Lapatinib] + NC1(c2ccc(-c3nc4ccn5c(=O)[nH]nc5c4cc3-c3ccccc3)cc2)CCC1 [MK-2206] (first compound max 10 µM, 7x7, partner max 10 µM)
Response given: 0.0217

----------
Tested on: NCI-H1944 (Lung Adenocarcinoma)
Assay: combination Emax (second highest fraction inhibited in the dose matrix, 72 h); higher = more inhibition; extreme values may be limits of the assay
Cut-off 0.4 on combination Emax, inclusive. At or above means YES; below means NO.

Here's what some known entries look like.
Cc1cc2ncnn2cc1Nc1ncc2c(n1)n(C1CCOCC1)c(=O)n2C [AZD7648] + CCN(CCO)CCCOc1ccc2c(Nc3cc(CC(=O)Nc4cccc(F)c4)[nH]n3)ncnc2c1 [AZD2811] (first compound max 10 µM, 7x7, partner max 1 µM)
YES
CN(CCO)CC[C@H](CSc1ccccc1)Nc1ccc(S(=O)(=O)NC(=O)c2ccc(N3CCC([C@@H](O)c4ccccc4-c4ccc(Cl)cc4)CC3)cc2)cc1S(=O)(=O)C(F)(F)F [AZD4320] + C1CN(CCC1(C(=O)N[C@@H](CCO)C2=CC=C(C=C2)Cl)N)C3=NC=NC4=C3C=CN4 [Capivasertib] (first compound max 1 µM, 7x7, partner max 3 µM)
NO

// switching to the query compound
Challenge: Check if combination Emax >= 0.4 (inclusive). Item: COc1nnc2ccc(N3CCC(c4ccc(OCCN5CCN(C)C(=O)[C@H]5C)cc4)CC3)nn12 [AZD5153] + Cc1c2c(nn1C)CSCc1cc(n(C)n1)CSc1cc(c3ccccc3c1)OCCCc1c(C(=O)O)n(C)c3c-2c(Cl)ccc13 [AZD5991] (first compound max 1 µM, 7x7, partner max 1 µM)
Response given: YES

----------
Test system: SBC-3 (Small Cell Lung Carcinoma)
Assay: combination Emax (second highest fraction inhibited in the dose matrix, 72 h); higher = more inhibition; extreme values may be limits of the assay
Attribute: combination Emax
Answer field: number only, no words.

C=CCn1c(=O)c2cnc(Nc3ccc(N4CCN(C)CC4)cc3)nc2n1-c1cccc(C(C)(C)O)n1 [AZD1775] + CCc1c2c(nc3ccc(O)cc13)-c1cc3c(c(=O)n1C2)COC(=O)[C@]3(O)CC [SN-38] (first compound max 1 µM, partner max 0.3 µM)
0.946
CN(CCO)CC[C@H](CSc1ccccc1)Nc1ccc(S(=O)(=O)NC(=O)c2ccc(N3CCC([C@@H](O)c4ccccc4-c4ccc(Cl)cc4)CC3)cc2)cc1S(=O)(=O)C(F)(F)F [AZD4320] + C=CCn1c(=O)c2cnc(Nc3ccc(N4CCN(C)CC4)cc3)nc2n1-c1cccc(C(C)(C)O)n1 [AZD1775] (first compound max 1 µM, partner max 1 µM)
0.69
CCc1c2c(nc3ccc(O)cc13)-c1cc3c(c(=O)n1C2)COC(=O)[C@]3(O)CC [SN-38] + O=C(c1cc(Cc2n[nH]c(=O)c3ccccc23)ccc1F)N1CCN(C(=O)C2CC2)CC1 [Olaparib] (first compound max 0.3 µM, 7x7, partner max 10 µM)
0.979
C[C@@H](c1ccc2nccn2c1)n1nnc2ncc(-c3cnn(C)c3)nc21 [Savolitinib] + CC1(C)CCC(CN2CCN(c3ccc(C(=O)NS(=O)(=O)c4ccc(NCC5CCOCC5)c([N+](=O)[O-])c4)c(Oc4cnc5[nH]ccc5c4)c3)CC2)=C(c2ccc(Cl)cc2)C1 [Venetoclax] (first compound max 1 µM, 7x7, partner max 1 µM)
0.118
CC1(C)CCC(CN2CCN(c3ccc(C(=O)NS(=O)(=O)c4ccc(NCC5CCOCC5)c([N+](=O)[O-])c4)c(Oc4cnc5[nH]ccc5c4)c3)CC2)=C(c2ccc(Cl)cc2)C1 [Venetoclax] + CS(=O)(=O)CCNCc1ccc(-c2ccc3ncnc(Nc4ccc(OCc5cccc(F)c5)c(Cl)c4)c3c2)o1 [Lapatinib] (first compound max 1 µM, 7x7, partner max 10 µM)
0.183

Challenge: Requested read-out: combination Emax. Entry: O=C(c1cc(Cc2n[nH]c(=O)c3ccccc23)ccc1F)N1CCN(C(=O)C2CC2)CC1 [Olaparib] + Cc1c2c(nn1C)CSCc1cc(n(C)n1)CSc1cc(c3ccccc3c1)OCCCc1c(C(=O)O)n(C)c3c-2c(Cl)ccc13 [AZD5991] (first compound max 10 µM, 7x7, partner max 1 µM)
Response given: 0.523

Challenge: Given COc1nnc2ccc(N3CCC(c4ccc(OCCN5CCN(C)C(=O)[C@H]5C)cc4)CC3)nn12 [AZD5153] + Cn1cnc2c(F)c(Nc3ccc(Br)cc3Cl)c(C(=O)NOCCO)cc21 [Selumetinib] (first compound max 1 µM, 7x7, partner max 10 µM) , state its recorded combination Emax.
Response given: 0.699

Challenge: Quick one: combination Emax for N#Cc1cnc(Nc2cc(NC[C@H]3CNCCO3)c(C(F)(F)F)cn2)cn1 [SRA737] + C=CCn1c(=O)c2cnc(Nc3ccc(N4CCN(C)CC4)cc3)nc2n1-c1cccc(C(C)(C)O)n1 [AZD1775] (first compound max 10 µM, partner max 1 µM) ?
Response given: 0.86

Challenge: // returns reported combination Emax for input CCN(CCO)CCCOc1ccc2c(Nc3cc(CC(=O)Nc4cccc(F)c4)[nH]n3)ncnc2c1 [AZD2811] + O=C(c1cc(Cc2n[nH]c(=O)c3ccccc23)ccc1F)N1CCN(C(=O)C2CC2)CC1 [Olaparib] (first compound max 1 µM, 7x7, partner max 10 µM)
Response given: 0.617

Challenge: # input compound: CS(=O)(=O)CCNCc1ccc(-c2ccc3ncnc(Nc4ccc(OCc5cccc(F)c5)c(Cl)c4)c3c2)o1 [Lapatinib] + C[C@@H](Oc1cc(-c2cnn(C3CCNCC3)c2)cnc1N)c1c(Cl)ccc(F)c1Cl [Crizotinib] (first compound max 10 µM, 7x7, partner max 10 µM) ; wanted: its combination Emax
Response given: 0.971

Challenge: Given the entry C=CCn1c(=O)c2cnc(Nc3ccc(N4CCN(C)CC4)cc3)nc2n1-c1cccc(C(C)(C)O)n1 [AZD1775] + O=C(c1cc(Cc2n[nH]c(=O)c3ccccc23)ccc1F)N1CCN(C(=O)C2CC2)CC1 [Olaparib] (first compound max 1 µM, partner max 10 µM) , report its measured combination Emax.
Response given: 0.621

Challenge: Can you share its combination Emax? I mean this compound: COc1nnc2ccc(N3CCC(c4ccc(OCCN5CCN(C)C(=O)[C@H]5C)cc4)CC3)nn12 [AZD5153] + CCN(CCO)CCCOc1ccc2c(Nc3cc(CC(=O)Nc4cccc(F)c4)[nH]n3)ncnc2c1 [AZD2811] (first compound max 1 µM, 7x7, partner max 1 µM)
Response given: 0.781

Challenge: Reported combination Emax for CCc1c2c(nc3ccc(O)cc13)-c1cc3c(c(=O)n1C2)COC(=O)[C@]3(O)CC [SN-38] + CN(C)CCCOc1ccc(-c2ccc3ncc4c(c3c2)n(C2CCOCC2)c(=O)n4C)cn1 [AZD0156] (first compound max 0.3 µM, 7x7, partner max 1 µM) : what is it?
Response given: 0.919
